TARGET_SYSTEM: human M1 receptor (Homo sapiens (Human), UniProt P11229)
Sequence (P11229 whole entry): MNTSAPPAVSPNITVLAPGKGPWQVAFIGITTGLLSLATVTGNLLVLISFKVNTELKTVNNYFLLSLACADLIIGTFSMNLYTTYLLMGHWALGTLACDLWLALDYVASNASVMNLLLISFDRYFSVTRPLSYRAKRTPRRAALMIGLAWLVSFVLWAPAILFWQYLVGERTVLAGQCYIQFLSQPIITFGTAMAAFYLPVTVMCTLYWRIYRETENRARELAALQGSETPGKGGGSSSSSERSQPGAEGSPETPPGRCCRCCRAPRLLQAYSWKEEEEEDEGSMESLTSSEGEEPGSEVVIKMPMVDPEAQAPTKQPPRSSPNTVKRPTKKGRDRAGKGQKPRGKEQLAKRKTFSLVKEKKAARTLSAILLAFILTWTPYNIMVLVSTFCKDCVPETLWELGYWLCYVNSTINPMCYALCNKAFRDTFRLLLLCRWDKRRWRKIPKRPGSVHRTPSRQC
ASSAY_TEXT: In vitro functional assay of muscarinic acetylcholine receptor activity, aequorin calcium flux, reversal of EC80 acetylcholine
Type: cell-based
TEST_PARAMETERS: CHO-K1 cells expressing human M1 receptor with aequorin; acetylcholine at EC80; read-out: M1 IC50
Please go through the items and note down their IC50.

[ask] Entry COc1cccc(S(=O)(=O)CCC(=O)N2CC3CCC(C2)N3c2ccc(C)nc2)c1 needs its IC50 filled in; supply it.
[reply] 1000 to 10000 nM

[ask] Entry N#Cc1ccc(N2C3CCC2CN(C(=O)CCCS(=O)(=O)c2ccccc2I)C3)nc1 needs its IC50 filled in; supply it.
[reply] < 10 nM

[ask] Entry N#Cc1ccc(N2C3CCC2CN(C(=O)CCS(=O)(=O)c2cccc(F)c2C2CC2)C3)nc1 needs its IC50 filled in; supply it.
[reply] < 10 nM

[ask] Entry CC(C)(O)c1cc(S(=O)(=O)CCC(=O)N2CC3CCC(C2)N3c2ccc(C#N)cn2)ccc1F needs its IC50 filled in; supply it.
[reply] 1000 to 10000 nM

[ask] Entry COc1cc(S(=O)(=O)CCC(=O)N2CC3CCC(C2)N3c2ccc(C#N)cn2)ccc1F needs its IC50 filled in; supply it.
[reply] < 10 nM

[ask] Entry Cc1c(F)cccc1S(=O)(=O)CCC(=O)N1CC2CCC(C1)N2c1ccc(C#N)cn1 needs its IC50 filled in; supply it.
[reply] < 10 nM

[ask] Entry N#Cc1ccc(N2C3CCC2CN(C(=O)CCS(=O)(=O)c2ccccc2[C@H]2CC2(F)F)C3)nc1 (single isomer, unassigned) needs its IC50 filled in; supply it.
[reply] < 10 nM

[ask] Entry COc1cccc(S(=O)(=O)CCC(=O)N2CC3CCC(C2)N3c2ccc(C)cn2)c1 needs its IC50 filled in; supply it.
[reply] 1000 to 10000 nM
